assay: chemical genetic growth profiling, strain panel (AID 1159580);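 further: tested at 20 µM; growth read once vehicle control cultures reached saturation at 30 °C; lower values mean less growth of the strain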; conditions: S. cerevisiae deletion strains, growth OD, locus YLR320W, strain mms22, active compounds read low
The campaign covered roughly 5,500 compounds. About 2,000 (36%) were called active. About 18% were inconclusive and are not listed. The list shows a part of the results.
Rule: measured normalized growth below 1 gets Satisfied; anything equal to or greater than 1 gets Not satisfied.

Would you please look over these solved cases?
O=C(/C=C/c1ccc(O)cc1)c1ccccc1O | Satisfied
Cn1c(=O)[nH]c2ncn(C)c2c1=O | Satisfied
CC(=O)OC[C@@]1(O)C[C@@]23CCC4c5ccoc5CC[C@]4(C)C2CC[C@@H]1C3 (stereo partly drawn) | Satisfied
O=C(/C=C/c1ccccc1)c1ccc(O)cc1O | Satisfied

Let's switch to this compound now.
Could you please tell me whether normalized growth recorded for `CC(=O)CCCCn1c(=O)c2c(ncn2C)n(C)c1=O` is less than 1? Not satisfied
